# Assayed system: Melanocortin receptor 3 (Mus musculus, UniProt P33033)
# Sequence (P33033 whole entry): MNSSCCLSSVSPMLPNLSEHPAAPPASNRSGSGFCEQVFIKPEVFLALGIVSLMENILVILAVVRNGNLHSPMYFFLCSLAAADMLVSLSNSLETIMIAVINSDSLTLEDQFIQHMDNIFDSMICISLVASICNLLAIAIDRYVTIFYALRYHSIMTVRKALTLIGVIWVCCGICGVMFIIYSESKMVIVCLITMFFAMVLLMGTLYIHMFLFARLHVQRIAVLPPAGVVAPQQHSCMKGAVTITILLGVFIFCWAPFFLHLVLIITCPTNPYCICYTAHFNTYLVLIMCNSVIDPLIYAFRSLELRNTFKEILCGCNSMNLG
# Protocol description: Activity at mouse MC3R expressed in HEK293 cells assessed as cAMP accumulation by CRE/beta-galactosidase reporter gene assay
Where a SMILES comes first, the peptide text is derived from it. Bridges are numbered along the chain shown (N, C = ends). Triazole bridges read from a SMILES are 1,4-linked. [ ]: non-standard residue; d: D form. Lys(N3) = [N-]=[N+]=NCCCC[C@H](N)C(=O)O; Nle = CCCC[C@H](N)C(=O)O; Pra = C#CC[C@H](N)C(=O)O
Item-by-item account of EC50
Numeric answer only, unit nM assumed.

Problem: Output measured EC50 for this item: CCCC[C@H](NC(C)=O)C(=O)N[C@H]1CCCCn2cc(nn2)C[C@@H](C(N)=O)NC(=O)[C@H](Cc2c[nH]c3ccccc23)NC(=O)[C@H](CCCNC(=N)N)NC(=O)[C@@H](Cc2ccccc2)NC(=O)[C@H](Cc2cnc[nH]2)NC1=O (Ac-[Nle][Lys(N3)]H[dF]RW[Pra]-NH2; triazole 2-7)
Result: 3.7

Problem: Output measured EC50 for this item: "CCCC[C@H](NC(C)=O)C(=O)N[C@H]1CCCc2cn(nn2)CC[C@@H](C(N)=O)NC(=O)[C@H](Cc2c[nH]c3ccccc23)NC(=O)[C@H](CCCNC(=N)N)NC(=O)[C@@H](Cc2ccccc2)NC(=O)[C@H](Cc2cnc[nH]2)NC1=O"
Result: 0.21

* * *

# Assayed system: Melanocortin receptor 5 (Mus musculus, UniProt P41149)
# Sequence (P41149 whole entry): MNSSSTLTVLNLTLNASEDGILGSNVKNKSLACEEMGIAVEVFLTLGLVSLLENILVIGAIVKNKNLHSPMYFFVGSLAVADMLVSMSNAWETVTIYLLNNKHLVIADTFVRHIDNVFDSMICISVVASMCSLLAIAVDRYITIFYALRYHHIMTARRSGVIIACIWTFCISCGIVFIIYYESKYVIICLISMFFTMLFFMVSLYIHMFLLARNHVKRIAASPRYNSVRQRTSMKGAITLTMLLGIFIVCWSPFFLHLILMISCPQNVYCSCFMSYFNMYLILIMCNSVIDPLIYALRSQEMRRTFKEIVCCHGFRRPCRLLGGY
# Protocol description: Activity at mouse MC5R expressed in HEK293 cells assessed as cAMP accumulation by CRE/beta-galactosidase reporter gene assay
Property label: EC50 (nM)

A = CCCC[C@H](NC(C)=O)C(=O)N[C@H]1CCCn2cc(nn2)CC[C@@H](C(N)=O)NC(=O)[C@H](Cc2c[nH]c3ccccc23)NC(=O)[C@H](CCCNC(=N)N)NC(=O)[C@@H](Cc2ccccc2)NC(=O)[C@H](Cc2cnc[nH]2)NC1=O
B = CCCC[C@H](NC(C)=O)C(=O)N[C@H]1CCn2cc(nn2)CCC[C@@H](C(N)=O)NC(=O)[C@H](Cc2c[nH]c3ccccc23)NC(=O)[C@H](CCCNC(=N)N)NC(=O)[C@@H](Cc2ccccc2)NC(=O)[C@H](Cc2cnc[nH]2)NC1=O
Problem: Of the pair A and B , name the member with the lesser recorded EC50. Reply briefly: the label of your chosen item.
Result: B
(B: 0.045 nM, A: 1.88 nM)

P = C#CC[C@H](NC(=O)[C@H](Cc1c[nH]c2ccccc12)NC(=O)[C@H](CCCNC(=N)N)NC(=O)[C@@H](Cc1ccccc1)NC(=O)[C@H](Cc1cnc[nH]1)NC(=O)[C@H](CCCCN=[N+]=[N-])NC(=O)[C@H](CCCC)NC(C)=O)C(N)=O
Q = CCCC[C@H](NC(C)=O)C(=O)N[C@H]1CCn2cc(nn2)CC[C@@H](C(N)=O)NC(=O)[C@H](Cc2c[nH]c3ccccc23)NC(=O)[C@H](CCCNC(=N)N)NC(=O)[C@@H](Cc2ccccc2)NC(=O)[C@H](Cc2cnc[nH]2)NC1=O
Problem: When their EC50 values are compared, which is larger, P or Q ? Reply briefly: the label of your chosen item.
Result: P

1 = CCCC[C@H](NC(C)=O)C(=O)N[C@H]1CCc2cn(nn2)CCC[C@@H](C(N)=O)NC(=O)[C@H](Cc2c[nH]c3ccccc23)NC(=O)[C@H](CCCNC(=N)N)NC(=O)[C@@H](Cc2ccccc2)NC(=O)[C@H](Cc2cnc[nH]2)NC1=O
2 = CCCC[C@H](NC(C)=O)C(=O)N[C@H]1CCCc2cn(nn2)CC[C@@H](C(N)=O)NC(=O)[C@H](Cc2c[nH]c3ccccc23)NC(=O)[C@H](CCCNC(=N)N)NC(=O)[C@@H](Cc2ccccc2)NC(=O)[C@H](Cc2cnc[nH]2)NC1=O
Problem: When their EC50 values are compared, which is larger, 1 or 2 ? Reply briefly: the label of your chosen item.
Result: 1
(1: 0.34 nM, 2: 0.042 nM)
